Numbers sourced from patent WO2012175740A1.

# assay-system: T1, cyno IgE c(epsilon)2-c(epsilon)3-c(epsilon)4 Fc fragment with C-terminal (His)10 tag (cynomolgus monkey)
# T1 construct: Made in HEK-EBNA cells with the murine Ig kappa leader; Biotinylated in the Alphascreen; also called cyno IgE Fc; cyno IgE-Fc
# T1 chain: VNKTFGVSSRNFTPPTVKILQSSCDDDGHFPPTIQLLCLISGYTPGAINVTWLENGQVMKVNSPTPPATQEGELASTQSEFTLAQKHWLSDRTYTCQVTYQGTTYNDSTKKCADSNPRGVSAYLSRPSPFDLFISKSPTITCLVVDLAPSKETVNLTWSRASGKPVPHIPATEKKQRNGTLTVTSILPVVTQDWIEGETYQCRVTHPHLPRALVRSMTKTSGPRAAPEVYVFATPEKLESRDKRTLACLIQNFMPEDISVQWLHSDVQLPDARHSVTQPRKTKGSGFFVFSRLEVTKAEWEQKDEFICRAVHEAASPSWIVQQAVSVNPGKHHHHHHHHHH
# assay-method-text: Alphascreen, competition with HuFc(epsilon)RI(alpha)Fc for cyno IgE Fc
measured-attribute: % inhibition at 250 nM Nanobody (%)
Reply with just the number (in %).

Check the records and state % inhibition at 250 nM Nanobody for Nanobody 42G5 (VHH, not shown: C-terminal c-myc tag and His6 tag) VHH: EVQLVESGGGLVRPGGSLRLSCAASGFTFGNYDMSWVRQAPGKGPEWVSSIDTGGDITHYADPVKGRFTISRDNAANTLYLQMNSLKPEDTAVYYCATDEDYALGPNEYDYYGQGTQVTVSS
91.2

Check the records and state % inhibition at 250 nM Nanobody for Nanobody 36G5 (VHH, not shown: C-terminal c-myc tag and His6 tag) VHH: EVQLVESGGGLVQPGGSLRLSCVASGFTFGSYDMSWVRQAPGKRPEWVSAINSGGGSTYYADSVKGRFTISRDNAKNTLYLQMNSLKPEDTAVYYCATDEDYALGPNEYDYYGQGTQVTVSS
88.1
